test system: Blood pressure in cats; experiment: Test for an antihypertensive effect: blood pressure in cats; assay type: in vivo; conditions: 0.1 mg/kg i.v., anesthetized cats, formula Ia
Counter-ions that a name gives are not always drawn.
Record form. Attribute: duration (of fall of B.P.). Fill in for each entry.
Numeric answer plus unit only.

Request: Provide duration (of fall of B.P.) value for the following molecule: C=C[C@@]1(C)CC(=O)[C@]2(O)[C@@]3(C)[C@@H](O)CCC(C)(C)[C@@H]3[C@H](O)[C@H](OC(=O)COC(=O)CN3CCOCC3)[C@@]2(C)O1 [drawing 62]
Response: 60 min

Request: Fill in duration (of fall of B.P.) for record C=C[C@@]1(C)CC(=O)[C@]2(O)[C@@]3(C)[C@@H](O)CCC(C)(C)[C@@H]3[C@H](O)[C@H](OC(=O)COC(=O)CN)[C@@]2(C)O1 [1 NH2, monohydrochloride]
Response: 120 min

Request: State, in one line, measured duration (of fall of B.P.) of C=C[C@@]1(C)CC(=O)[C@]2(O)[C@@]3(C)[C@@H](O)CCC(C)(C)[C@@H]3[C@H](O)[C@H](OC(=O)COC(=O)CN(C(C)C)C(C)C)[C@@]2(C)O1 [1 NH[CH(CH3)2]2]
Response: 125 min

Request: Give a short answer stating reported duration (of fall of B.P.) for C=C[C@@]1(C)CC(=O)[C@]2(O)[C@@]3(C)[C@@H](O)CCC(C)(C)[C@@H]3[C@H](O)[C@H](OC(=O)COC(=O)CN3CCN(C)CC3)[C@@]2(C)O1 [drawing 61] .
Response: 40 min

Request: Quote duration (of fall of B.P.) reported for C=C[C@@]1(C)CC(=O)[C@]2(O)[C@@]3(C)[C@@H](O)CCC(C)(C)[C@@H]3[C@H](O)[C@H](OC(=O)COC(=O)CN3CCCCC3)[C@@]2(C)O1 please.
Response: 40 min

// provenance: patent US5093331A
